ASSAYED TARGET: HLA-A*02:19
ASSAY TEXT: IEDB peptide-MHC binding, purified MHC/direct/fluorescence; filed as Kd, often an IC50 or EC50 that approximates it; bounds were set here for any values at or beyond the usual limits of such assays
MEASUREMENT PARAMETERS: source organism: Yersinia pestis CA88-4125
OBSERVABLE: pKd
Entry type: numeric. Quantity: pKd, the -log10 of concentration in molar units.

Request: I am curious: what pKd value has been reported for `AMQDPNPEV` ?
Response: 7.38

* * *

ASSAYED TARGET: HLA-A*02:12
ASSAY TEXT: IEDB peptide-MHC binding, purified MHC/competitive/fluorescence; filed as Kd, often an IC50 or EC50 that approximates it; bounds were set here for any values at or beyond the usual limits of such assays
MEASUREMENT PARAMETERS: source organism: Homo sapiens
OBSERVABLE: Kd

Request: I am curious: what Kd value has been reported for `SLFNWLWYE` ?
Response: ≥ 20 µM

* * *

ASSAYED TARGET: HLA-B*57:01
ASSAY TEXT: IEDB peptide-MHC binding, purified MHC/competitive/fluorescence; filed as Kd, often an IC50 or EC50 that approximates it; bounds were set here for any values at or beyond the usual limits of such assays
MEASUREMENT PARAMETERS: source organism: Bacillus anthracis str. A2012
pKd: −log10 of the molar value.
OBSERVABLE: pKd

Request: I am curious: what pKd value has been reported for `KKNHWFILK` ?
Response: ≤ 4.70

* * *

pKd values by entry
ASSAYED TARGET: HLA-B*27:03
ASSAY TEXT: IEDB peptide-MHC binding, purified MHC/competitive/fluorescence; filed as Kd, often an IC50 or EC50 that approximates it; bounds were set here for any values at or beyond the usual limits of such assays
MEASUREMENT PARAMETERS: source organism: Zaire ebolavirus
pKd: −log10 of the molar value.

{"columns": ["SEQUENCE STRING", "pKd"],
 "data": [
  ["TAAIMLASY", "≤ 4.70"]
]}

Field: next sequence
Request: I am curious: what pKd value has been reported for `AFHQLVQVI` ?
Response: ≤ 4.70

* * *

ASSAYED TARGET: HLA-A*11:01
ASSAY TEXT: IEDB peptide-MHC binding, purified MHC/competitive/radioactivity; filed as Kd, often an IC50 or EC50 that approximates it; bounds were set here for any values at or beyond the usual limits of such assays
MEASUREMENT PARAMETERS: source organism: Dengue virus 1 Nauru/West Pac/1974
OBSERVABLE: pKd
Entry type: numeric. Quantity: pKd, the -log10 of concentration in molar units.

Request: I am curious: what pKd value has been reported for `RVSTVSQLAK` ?
Response: 7.39

* * *

ASSAYED TARGET: HLA-A*03:01
ASSAY TEXT: IEDB peptide-MHC binding, purified MHC/competitive/fluorescence; bounds were set here for any values at or beyond the usual limits of such assays
MEASUREMENT PARAMETERS: source organism: Vaccinia virus WR
OBSERVABLE: pIC50
Entry type: numeric. Quantity: pIC50, the -log10 of concentration in molar units.

Request: I am curious: what pIC50 value has been reported for `AVIRANNNR` ?
Response: 5.23

* * *

ASSAYED TARGET: HLA-A*03:01
ASSAY TEXT: IEDB peptide-MHC binding, purified MHC/competitive/radioactivity; filed as Kd, often an IC50 or EC50 that approximates it; bounds were set here for any values at or beyond the usual limits of such assays
MEASUREMENT PARAMETERS: source organism: Mammarenavirus juninense
OBSERVABLE: pKd
Entry type: numeric. Quantity: pKd, the -log10 of concentration in molar units.

Request: I am curious: what pKd value has been reported for `VFFTASLFLH` ?
Response: 4.98

* * *

ASSAYED TARGET: HLA-B*40:13
ASSAY TEXT: IEDB peptide-MHC binding, purified MHC/competitive/fluorescence; filed as Kd, often an IC50 or EC50 that approximates it; bounds were set here for any values at or beyond the usual limits of such assays
MEASUREMENT PARAMETERS: source organism: Vibrio vulnificus YJ016
OBSERVABLE: pKd
Entry type: numeric. Quantity: pKd, the -log10 of concentration in molar units.

Request: I am curious: what pKd value has been reported for `KMFNRASYF` ?
Response: 8.62

* * *

ASSAYED TARGET: HLA-A*02:02
ASSAY TEXT: IEDB peptide-MHC binding, purified MHC/competitive/radioactivity; filed as Kd, often an IC50 or EC50 that approximates it; bounds were set here for any values at or beyond the usual limits of such assays
MEASUREMENT PARAMETERS: source organism: Mammarenavirus guanaritoense
OBSERVABLE: Kd (nM)
# value in nM; strip the unit string

Request: I am curious: what Kd value has been reported for `FMNDLQVSR` ?
Response: 249

* * *

ASSAYED TARGET: HLA-B*48:01
ASSAY TEXT: IEDB peptide-MHC binding, purified MHC/direct/fluorescence; filed as Kd, often an IC50 or EC50 that approximates it; bounds were set here for any values at or beyond the usual limits of such assays
MEASUREMENT PARAMETERS: source organism: Camelpox virus CMS
pKd: −log10 of the molar value.
OBSERVABLE: pKd

Request: I am curious: what pKd value has been reported for `VIARTHTAL` ?
Response: ≤ 4.70

* * *

ASSAYED TARGET: HLA-B*15:42
ASSAY TEXT: IEDB peptide-MHC binding, purified MHC/competitive/fluorescence; filed as Kd, often an IC50 or EC50 that approximates it; bounds were set here for any values at or beyond the usual limits of such assays
MEASUREMENT PARAMETERS: source organism: Mus musculus
OBSERVABLE: Kd

Request: Checklist item: Kd tested on HLA-B*15:42, entry `FRMLAWHVL` , value?
Response: ≥ 5 µM

* * *

ASSAYED TARGET: HLA-B*46:01
ASSAY TEXT: IEDB peptide-MHC binding, purified MHC/direct/fluorescence; filed as Kd, often an IC50 or EC50 that approximates it; bounds were set here for any values at or beyond the usual limits of such assays
MEASUREMENT PARAMETERS: source organism: Brucella abortus
pKd: −log10 of the molar value.
OBSERVABLE: pKd

Request: I am curious: what pKd value has been reported for `RFRCVGPAP` ?
Response: ≤ 4.70

* * *

ASSAYED TARGET: HLA-B*27:05
ASSAY TEXT: IEDB peptide-MHC binding, purified MHC/direct/fluorescence; filed as Kd, often an IC50 or EC50 that approximates it; bounds were set here for any values at or beyond the usual limits of such assays
MEASUREMENT PARAMETERS: source organism: Camelpox virus CMS
OBSERVABLE: Kd

Request: I am curious: what Kd value has been reported for `VIARTHTAL` ?
Response: ≥ 20 µM

* * *

pIC50 values by entry
ASSAYED TARGET: HLA-A*02:01
ASSAY TEXT: IEDB peptide-MHC binding, purified MHC/competitive/fluorescence; bounds were set here for any values at or beyond the usual limits of such assays
MEASUREMENT PARAMETERS: source organism: Vaccinia virus WR
pIC50: −log10 of the molar value.

Consider the worked cases shown below.
{"columns": ["SEQUENCE STRING", "pIC50"],
 "data": [
  ["PIDSHKGYV", "≤ 3.89"],
  ["NVEYRFLVI", "≤ 3.84"]
]}

Field: next sequence
Request: I am curious: what pIC50 value has been reported for `VGLITCKAF` ?
Response: ≤ 2.88

* * *

ASSAYED TARGET: HLA-A*31:01
ASSAY TEXT: IEDB peptide-MHC binding, purified MHC/direct/fluorescence; filed as Kd, often an IC50 or EC50 that approximates it; bounds were set here for any values at or beyond the usual limits of such assays
MEASUREMENT PARAMETERS: source organism: Mammarenavirus lassaense
OBSERVABLE: Kd

Request: I am curious: what Kd value has been reported for `IEEVMNIVL` ?
Response: ≥ 20 µM

* * *

ASSAYED TARGET: HLA-B*35:01
ASSAY TEXT: IEDB peptide-MHC binding, purified MHC/direct/fluorescence; filed as Kd, often an IC50 or EC50 that approximates it; bounds were set here for any values at or beyond the usual limits of such assays
MEASUREMENT PARAMETERS: source organism: Yersinia pestis
OBSERVABLE: pKd
Entry type: numeric. Quantity: pKd, the -log10 of concentration in molar units.

Request: I am curious: what pKd value has been reported for `MQLQLNCAY` ?
Response: 7.47

* * *

ASSAYED TARGET: HLA-A*01:01
ASSAY TEXT: IEDB peptide-MHC binding, purified MHC/direct/fluorescence; filed as Kd, often an IC50 or EC50 that approximates it; bounds were set here for any values at or beyond the usual limits of such assays
MEASUREMENT PARAMETERS: source organism: Corynebacterium efficiens
pKd: −log10 of the molar value.
OBSERVABLE: pKd

Request: I am curious: what pKd value has been reported for `KLGDQFGRK` ?
Response: ≤ 4.70
